- systemTested: Focal adhesion kinase 1 (Homo sapiens) (UniProt Q05397)
- Sequence (Q05397 2-1052 limits assumed): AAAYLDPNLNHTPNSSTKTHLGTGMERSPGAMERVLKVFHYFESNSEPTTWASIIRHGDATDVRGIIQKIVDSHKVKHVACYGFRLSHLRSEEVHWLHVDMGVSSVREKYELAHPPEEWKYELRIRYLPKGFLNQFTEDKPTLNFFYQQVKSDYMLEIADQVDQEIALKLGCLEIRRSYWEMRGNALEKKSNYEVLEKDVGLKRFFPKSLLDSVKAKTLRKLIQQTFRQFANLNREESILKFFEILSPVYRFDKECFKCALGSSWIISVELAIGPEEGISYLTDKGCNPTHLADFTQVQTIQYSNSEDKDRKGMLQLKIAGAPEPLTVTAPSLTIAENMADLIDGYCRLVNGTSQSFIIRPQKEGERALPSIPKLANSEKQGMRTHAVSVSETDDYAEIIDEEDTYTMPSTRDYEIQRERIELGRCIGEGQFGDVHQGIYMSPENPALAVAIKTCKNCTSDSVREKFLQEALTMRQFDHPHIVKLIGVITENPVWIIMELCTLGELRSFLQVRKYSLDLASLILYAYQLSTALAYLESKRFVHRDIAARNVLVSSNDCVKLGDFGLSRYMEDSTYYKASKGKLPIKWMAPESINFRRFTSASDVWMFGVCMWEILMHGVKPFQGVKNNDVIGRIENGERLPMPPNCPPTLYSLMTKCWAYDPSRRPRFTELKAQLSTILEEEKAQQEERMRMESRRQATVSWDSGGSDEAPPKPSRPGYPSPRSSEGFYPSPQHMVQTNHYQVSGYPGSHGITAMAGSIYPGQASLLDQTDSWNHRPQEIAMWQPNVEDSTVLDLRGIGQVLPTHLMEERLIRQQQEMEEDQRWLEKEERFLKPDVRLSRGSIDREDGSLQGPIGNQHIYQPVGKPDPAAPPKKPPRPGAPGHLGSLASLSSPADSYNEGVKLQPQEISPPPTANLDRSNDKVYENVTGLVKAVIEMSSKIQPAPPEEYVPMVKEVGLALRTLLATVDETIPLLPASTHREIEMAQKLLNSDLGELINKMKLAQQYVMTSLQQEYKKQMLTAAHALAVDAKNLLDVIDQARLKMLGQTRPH
- testProtocol: Inhibition of human recombinant FAK expressed in baculovirus infected sf9 cells using KVEKIGEGTYGVVYK as substrate at 100 uM incubated for 10 mins by scintillation counting method relative to control
Entries and their measured inhibition follow.
Answer with a number only, understood to be in %.

Consider the following illustrative entries.
- compoundStructure: "COc1ccc(/C=N/Nc2cc(C)c3ccccc3n2)cc1"
  scaleUnit: "%"
  inhibition: 11
- compoundStructure: "Cc1cc(N/N=C/c2ccc(O)cc2)nc2ccccc12"
  scaleUnit: "%"
  inhibition: 13
- compoundStructure: "C/C(=N\\Nc1ccc2ccccc2n1)c1ccccc1O"
  scaleUnit: "%"
  inhibition: 1

Turning now to a further compound:
Enquiry: Recorded inhibition of COc1ccc(-c2nnc3c(NCCN4CCOCC4)cccn23)cc1OC , please.
Return: 8

----------
- systemTested: Serine/threonine-protein kinase pim-1 (Homo sapiens) (UniProt P11309)
- Sequence (P11309 whole entry, looked up): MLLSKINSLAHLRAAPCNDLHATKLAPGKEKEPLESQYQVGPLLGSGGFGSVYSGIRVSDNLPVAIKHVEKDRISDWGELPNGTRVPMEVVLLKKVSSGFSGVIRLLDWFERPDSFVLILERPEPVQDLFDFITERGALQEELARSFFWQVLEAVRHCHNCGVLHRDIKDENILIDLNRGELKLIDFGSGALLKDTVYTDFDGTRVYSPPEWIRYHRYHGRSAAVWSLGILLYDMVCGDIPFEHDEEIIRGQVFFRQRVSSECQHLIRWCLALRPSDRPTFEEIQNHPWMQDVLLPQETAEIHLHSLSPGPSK
- testProtocol: Inhibition of full length human recombinant N-terminal GST-tagged PIM1 expressed in Escherichia coli using S6 Kinase/Rsk2 peptide2 as substrate at 100 uM incubated for 10 mins by scintillation counting method relative to control
resultType: inhibition (%)
Answer with a number only, understood to be in %.

- compoundStructure: "Cc1cc(N/N=C/c2ccc(O)cc2)nc2ccccc12"
  inhibition / %: 43
- compoundStructure: "C/C(=N\\Nc1ccc2ccccc2n1)c1ccccc1O"
  inhibition / %: 3
- compoundStructure: "COc1ccc(/C=N/Nc2cc(C)c3ccccc3n2)cc1"
  inhibition / %: 20

Turning now to a further molecule:
Enquiry: Recorded inhibition of COc1ccc(-c2nnc3c(NCCN4CCOCC4)cccn23)cc1OC , please.
Return: 29

----------
- systemTested: CDK2/Cyclin A2 (Homo sapiens) (UniProt P24941+P20248)
- testProtocol: Inhibition of full length human recombinant N-terminal GST-tagged CDK2 (M1-L298 residues)/Cyclin A2 (M1-L432 residues) expressed in baculovirus infected sf9 cells using histone H1 as substrate at 100 uM incubated for 10 mins by scintillation counting method relative to control
resultType: inhibition (%)
Answer with a number only, understood to be in %.

- compoundStructure: "C/C(=N\\Nc1ccc2ccccc2n1)c1ccccc1O"
  inhibition / %: 3
- compoundStructure: "COc1ccc(/C=N/Nc2cc(C)c3ccccc3n2)cc1"
  inhibition / %: 9
- compoundStructure: "COc1ccc(-c2nnc3c(NCCN4CCOCC4)cccn23)cc1OC"
  inhibition / %: 22

Turning now to a further molecule:
Enquiry: Recorded inhibition of Cc1cc(N/N=C/c2ccc(O)cc2)nc2ccccc12 , please.
Return: 12

----------
Entries and their measured inhibition follow.
- systemTested: Phosphatidylinositol 4-kinase beta (Homo sapiens)
- testProtocol: Inhibition of full length human recombinant N-terminal GST-His-tagged PI4KB expressed in sf9 cells using phosphatidyl inositol:phosphatidyl serine (1:3) substrate at 100 uM by ADP-Glo kinase assay relative to control
Answer with a number only, understood to be in %.

- compoundStructure: "C/C(=N\\Nc1ccc2ccccc2n1)c1ccccc1O"
  systemTested: "Phosphatidylinositol 4-kinase beta (Homo sapiens)"
  endpointValue: 0
- compoundStructure: "Cc1cc(N/N=C/c2ccc(O)cc2)nc2ccccc12"
  systemTested: "Phosphatidylinositol 4-kinase beta (Homo sapiens)"
  endpointValue: 31
- compoundStructure: "COc1ccc(-c2nnc3c(NCCN4CCOCC4)cccn23)cc1OC"
  systemTested: "Phosphatidylinositol 4-kinase beta (Homo sapiens)"
  endpointValue: 3

Turning now to a further compound:
Enquiry: Recorded inhibition of COc1ccc(/C=N/Nc2cc(C)c3ccccc3n2)cc1 , please.
Return: 32

Recorded values, source ChEMBL document CHEMBL3797082.
